Values compiled from patent US6124269A.

- Tested on: Mycobacterium smegmatis ATCC 114
- assay_explanation: In vitro agar dilution MIC, organism code UU
- Format: cell-based
- condition_set: Table 1B, in µg/mL (unit assumed)
parameter: MIC

CC[C@H]1OC(=O)C(C)(F)C(=O)[C@H](C)[C@@H](O[C@@H]2O[C@H](C)C[C@H](N(C)C)[C@H]2O)[C@](C)(OCC#CC(=O)c2cccs2)C[C@@H](C)C(=O)[C@H](C)[C@H]2NC(=O)O[C@@]21C (stereo partly shown) [Example 24]	3.1
CC[C@H]1OC(=O)[C@@](C)(F)C(=O)[C@H](C)[C@@H](O[C@@H]2O[C@H](C)C[C@H](N(C)C)[C@H]2O)[C@](C)(OC/C=C/c2cnc3ccc(N)cc3c2)C[C@@H](C)C(=O)[C@H](C)[C@H]2NC(=O)O[C@@]21C [Example 9]	0.78
CC[C@H]1OC(=O)[C@@](C)(F)C(=O)[C@H](C)[C@@H](O[C@@H]2O[C@H](C)C[C@H](N(C)C)[C@H]2O)[C@](C)(OC/C=C/c2cnc3ncccc3c2)C[C@@H](C)C(=O)[C@H](C)[C@H]2NC(=O)O[C@@]21C [Example 11]	0.78
CC[C@H]1OC(=O)C(C)(F)C(=O)[C@H](C)[C@@H](O[C@@H]2O[C@H](C)C[C@H](N(C)C)[C@H]2O)[C@](C)(OCC#Cc2ccc(-c3cccs3)s2)C[C@@H](C)C(=O)[C@H](C)[C@H]2NC(=O)O[C@@]21C (stereo partly shown) [Example 28]	0.39
CC[C@H]1OC(=O)C(C)(F)C(=O)[C@H](C)[C@@H](O[C@@H]2O[C@H](C)C[C@H](N(C)C)[C@H]2O)[C@](C)(OCC#CC(=O)c2ccc(Cl)nc2)C[C@@H](C)C(=O)[C@H](C)[C@H]2NC(=O)O[C@@]21C (stereo partly shown) [Example 25]	0.78
CC[C@H]1OC(=O)[C@@](C)(F)C(=O)[C@H](C)[C@@H](O[C@@H]2O[C@H](C)C[C@H](N(C)C)[C@H]2O)[C@](C)(OC/C=C/c2cnc3ccc([N+](=O)[O-])cc3c2)C[C@@H](C)C(=O)[C@H](C)[C@H]2NC(=O)O[C@@]21C [Example 6]	0.1

Ask: So what's the measured MIC for this one? CC[C@H]1OC(=O)[C@@](C)(F)C(=O)[C@H](C)[C@@H](O[C@@H]2O[C@H](C)C[C@H](N(C)C)[C@H]2O)[C@](C)(OC/C=C/c2cnc3ccc(C=NO)cc3c2)C[C@@H](C)C(=O)[C@H](C)[C@H]2NC(=O)O[C@@]21C [Example 18]
Reply: 0.78

====

- Tested on: Streptococcus pneumoniae 5979
- assay_explanation: In vitro agar dilution MIC, organism code ZZ
- Type: cell-based
- condition_set: Table 1B, unit assumed
I'd be grateful if you could share measured MIC for these entries.
Reply with the number and its unit after it.

CC[C@H]1OC(=O)C(C)(F)C(=O)[C@H](C)[C@@H](O[C@@H]2O[C@H](C)C[C@H](N(C)C)[C@H]2O)[C@](C)(OCC#CC(=O)c2ccc(Cl)nc2)C[C@@H](C)C(=O)[C@H](C)[C@H]2NC(=O)O[C@@]21C (some centres unmarked)	0.06 µg/mL

Ask: So what's the measured MIC for this one? `CC[C@H]1OC(=O)[C@@](C)(F)C(=O)[C@H](C)[C@@H](O[C@@H]2O[C@H](C)C[C@H](N(C)C)[C@H]2O)[C@](C)(OC/C=C/c2cnc3ccc(C=O)cc3c2)C[C@@H](C)C(=O)[C@H](C)[C@H]2NC(=O)O[C@@]21C`
Reply: 1 µg/mL
